Data credit: paper PMC8903829

# protocol: Bioanalytical assessment of plasma and brain concentrations after 6 Hz assay
# Format: in vivo, mouse
# conditions: Scn8a N1768D/+, mouse, plasma, oral, 10 mg/kg, Study16162, 10 mg/kg, SCN8A mouse 6HZ; read-out: Mean [Palsma]
parameter-measured: concentration at 2 h (µM)

NC(=O)N1c2ccccc2C=Cc2ccccc21 [carbamazepine, Carbamazepine, reference compound]	20.7

====

# assayed-target: hNaV1.6 N1466K (Homo sapiens, UniProt Q9UQD0, N1466K)
# Construct: expression vector containing the full-length cDNA coding for specific human and mouse sodium channel α-subunit
# Sequence (Q9UQD0 whole entry N1466K): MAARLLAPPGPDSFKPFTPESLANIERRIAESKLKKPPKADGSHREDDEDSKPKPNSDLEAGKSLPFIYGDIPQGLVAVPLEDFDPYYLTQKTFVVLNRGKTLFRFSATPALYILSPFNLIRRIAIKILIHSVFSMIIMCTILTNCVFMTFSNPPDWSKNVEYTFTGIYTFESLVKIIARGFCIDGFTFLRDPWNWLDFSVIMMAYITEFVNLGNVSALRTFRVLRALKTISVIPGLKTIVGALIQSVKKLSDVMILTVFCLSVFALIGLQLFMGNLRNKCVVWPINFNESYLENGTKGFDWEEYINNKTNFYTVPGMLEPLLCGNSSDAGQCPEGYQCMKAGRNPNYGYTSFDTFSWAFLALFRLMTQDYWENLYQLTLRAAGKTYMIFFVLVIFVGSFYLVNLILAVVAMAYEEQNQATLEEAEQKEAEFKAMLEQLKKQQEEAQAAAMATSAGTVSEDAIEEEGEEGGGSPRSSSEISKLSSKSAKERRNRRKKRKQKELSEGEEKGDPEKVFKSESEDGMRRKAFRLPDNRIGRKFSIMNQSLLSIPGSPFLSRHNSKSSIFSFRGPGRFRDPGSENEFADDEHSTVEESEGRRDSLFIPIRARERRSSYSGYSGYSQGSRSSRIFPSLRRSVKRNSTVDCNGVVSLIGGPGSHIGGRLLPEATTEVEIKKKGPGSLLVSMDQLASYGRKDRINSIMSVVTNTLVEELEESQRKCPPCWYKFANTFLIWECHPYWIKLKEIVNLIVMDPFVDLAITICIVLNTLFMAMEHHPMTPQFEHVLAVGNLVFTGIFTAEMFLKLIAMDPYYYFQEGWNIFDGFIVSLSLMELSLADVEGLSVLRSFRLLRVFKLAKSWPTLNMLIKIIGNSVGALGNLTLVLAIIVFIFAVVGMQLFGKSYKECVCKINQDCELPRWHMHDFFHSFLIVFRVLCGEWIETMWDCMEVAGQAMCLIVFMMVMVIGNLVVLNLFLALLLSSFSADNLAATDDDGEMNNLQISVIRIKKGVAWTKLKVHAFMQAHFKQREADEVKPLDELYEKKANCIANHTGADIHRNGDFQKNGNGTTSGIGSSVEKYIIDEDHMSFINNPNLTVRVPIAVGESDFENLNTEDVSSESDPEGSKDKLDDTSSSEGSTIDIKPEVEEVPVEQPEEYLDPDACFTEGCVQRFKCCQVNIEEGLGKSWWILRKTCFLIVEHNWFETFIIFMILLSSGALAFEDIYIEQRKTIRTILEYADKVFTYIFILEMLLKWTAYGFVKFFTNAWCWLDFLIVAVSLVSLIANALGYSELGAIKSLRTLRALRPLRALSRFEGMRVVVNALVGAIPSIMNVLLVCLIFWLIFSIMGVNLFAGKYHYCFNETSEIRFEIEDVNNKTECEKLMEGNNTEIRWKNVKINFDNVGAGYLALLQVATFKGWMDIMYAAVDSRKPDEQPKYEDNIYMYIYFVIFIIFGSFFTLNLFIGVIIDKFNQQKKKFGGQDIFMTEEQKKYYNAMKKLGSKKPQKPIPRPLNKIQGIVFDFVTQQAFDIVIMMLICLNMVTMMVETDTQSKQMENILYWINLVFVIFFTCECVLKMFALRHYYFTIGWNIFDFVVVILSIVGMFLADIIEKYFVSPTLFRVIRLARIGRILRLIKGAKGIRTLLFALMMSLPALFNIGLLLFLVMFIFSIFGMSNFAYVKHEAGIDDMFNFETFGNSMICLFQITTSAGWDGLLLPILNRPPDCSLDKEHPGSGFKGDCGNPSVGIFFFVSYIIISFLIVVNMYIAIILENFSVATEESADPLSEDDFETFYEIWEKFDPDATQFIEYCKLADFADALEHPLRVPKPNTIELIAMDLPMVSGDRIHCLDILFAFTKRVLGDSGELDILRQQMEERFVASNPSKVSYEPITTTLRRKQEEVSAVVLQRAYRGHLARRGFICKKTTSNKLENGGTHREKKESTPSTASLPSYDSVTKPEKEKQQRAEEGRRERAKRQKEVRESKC
# protocol: Automated patch-clamp, patient-identified variant in Expi293F cells
pIC50: −log10 of the molar value.
parameter-measured: pIC50

Cc1cc(S(=O)(=O)Nc2cscn2)c(F)cc1N(C)[C@H]1CCN(Cc2ccccc2)C1 [NBI-921352]	7.41
